Tested on: BT-549 breast
Assay Method Text: NCI tumour cell line growth inhibition, 48 h

| Compound | TGI |
| --- | --- |
| O=C1NC2(CCNCC2)Oc2ccccc21 | > 100 µM |
| Cc1cc(O)c(/C=N/C(=S)Nc2ccc(S(N)(=O)=O)cc2)c(=O)o1 | > 100 µM |
| O=C(Cn1c2ccc(Br)cc2c2nc3ccccc3nc21)Nc1ccccc1 | > 100 µM |
| COc1ccc(C2NC(=S)NC3=C2CCOc2c3ccc3ccccc23)cc1 (stereo unspecified) | > 100 µM |
| COC(=O)C(=O)C(C(=O)C(=O)Nc1ccc(C)cc1C)c1nc2ccc(Cl)cc2[nH]c1=O (stereo unspecified) | > 100 µM |
| N#C/C(=C(/O)CCl)c1nc2ccccc2o1 | 5.01 µM |
| COc1cc(C2S/C(=C/c3ccccc3)C(=O)N2c2cccc(NC(C)=O)c2)cc(OC)c1OC (stereo unspecified) | > 100 µM |
| CCOC(=O)/C(=C\c1ccc2ccccc2c1)P(=O)(OCC)OCC | 5.88 µM |
| CCOC(=O)[C@@H]1CSC(CC)=C(C(=O)O)N1 | > 100 µM |
| O=C(O)c1ccccc1NCn1c(=S)sc2ccccc21 | > 100 µM |
| CC1(C)OC[C@@H]([C@@]2(COC(c3ccccc3)(c3ccccc3)c3ccccc3)CC=CC(=O)O2)O1 | 74.4 µM |

###

Reported values of GI50 for individual entries
System: SNB-75 CNS
Assay Method Text: NCI tumour cell line growth inhibition, 48 h

| Molecule | Tested On | GI50 |
| --- | --- | --- |
| CC(C)OP(=O)(O)c1ncc(-c2ccc(C(F)(F)F)cc2)c(NC2CCCCCC2)n1 | SNB-75 CNS | > 100000 nM |
| C=C1C[C@@H]2O[C@H]3[C@H]4[C@@H](CC[C@@](C)(OC(=O)CCC)[C@H]42)[C@@H](C)C(=O)O[C@@]3(C)CC[C@H]1OO | SNB-75 CNS | 20500 nM |
| CC(=O)Oc1cc2cnc3c4cc(OC(C)=O)c(OC(C)=O)cc4ccc3c2cc1OC(C)=O | SNB-75 CNS | 250 nM |
| COc1cc2cc(Oc3cccc(NC(=O)Nc4cc(C(F)(F)F)cc(C(F)(F)F)c4)c3)c(C)nc2cc1OC | SNB-75 CNS | 1730 nM |
| COc1ccc(-c2c(N)noc2-c2cc(OC)c3c(c2)OCCO3)cc1 | SNB-75 CNS | < 10 nM |
| CCc1ccc2c(c1)N(CCO)C1=C(C(=O)OC1)C2c1cc(OC)c(OC)c(OC)c1 (stereo not given) | SNB-75 CNS | 134 nM |
| COc1cccc(-c2nc3sccn3c2-c2ccnc(NCCCNS(=O)(=O)c3ccccc3)c2)c1 | SNB-75 CNS | 1550 nM |
| CC(O)[C@H](NC(=O)N[C@@H](CC(N)=O)c1nc(N2CCNCC2)no1)C(=O)O (stereo not given in full) | SNB-75 CNS | > 100000 nM |
| CN1CC[C@H](c2c(O)cc(O)c3c(=O)cc(-c4ccccc4Cl)oc23)[C@H](O)C1 | SNB-75 CNS | 53 nM |
| CC1(C)N=C(N)N=C(N)N1c1cccc(CCc2ccccc2)c1 | SNB-75 CNS | 707 nM |

Reference source: PubChem BioAssay (NCI)
